B1: ADD1 (parent)
chain: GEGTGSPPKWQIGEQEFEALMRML

- Variants of: B1
- Method: protein stability index of a GFP-peptide fusion (GPS, HEK-293T) (PSI 1-6); higher = more stable;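 also: lentivirally expressed fusions sorted by FACS into six bins by GFP to DsRed ratio, PSI derived from sequencing read proportions per bin multiplied by bin number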
- Condition parameters: c terminus: a fixed tail appended
Measured attribute: protein stability index

Sequence content | Result
GEGTGSPLKWQIGEQEFEALMRML [P8L] | 2.6
GEGLGSPPKWQIGEQEFEALMRML [T4L] | 3.38
GEGTGSPPKWQIGEQEFMALMRML [E18M] | 2.95
GEGTGSPPKWQIGEQEFEALMREL [M23E] | 5.04
GEGTGSPPKWQRGEQEFEALMRML [I12R] | 3.12
GEGTGSPPKWQITEQEFEALMRML [G13T] | 2.74
GESTGSPPKWQIGEQEFEALMRML [G3S] | 2.87
GEGTGSPPKWQIGEQEFEQLMRML [A19Q] | 3.65
GEGVGSPPKWQIGEQEFEALMRML [T4V] | 2.98
GEGTGSPPKWQIGIQEFEALMRML [E14I] | 3.39
GEGTGSPPKWQIGNQEFEALMRML [E14N] | 2.96
GEGTGSPAKWQIGEQEFEALMRML [P8A] | 3.07
GEGTGSPPKWQIGEQEFEALMRLL [M23L] | 2.74
GEGTGEPPKWQIGEQEFEALMRML [S6E] | 3.45
GEGTGSPPKWQIGQQEFEALMRML [E14Q] | 3.19
GEGTGSAPKWQIGEQEFEALMRML [P7A] | 2.92
GEGTGSPPHWQIGEQEFEALMRML [K9H] | 3.08
GEGTGSPPKWQIGEREFEALMRML [Q15R] | 2.59
GEGCGSPPKWQIGEQEFEALMRML [T4C] | 2.94
GEGTGSPPKWQIGPQEFEALMRML [E14P] | 2.93
GEGTGSPPKWQIGEQEFEALMPML [R22P] | 3.75
GEGTGSPPKWQIGEHEFEALMRML [Q15H] | 2.83
GEGTGHPPKWQIGEQEFEALMRML [S6H] | 2.76
GEGTGSPPKWQIGEKEFEALMRML [Q15K] | 2.47
GEGTGTPPKWQIGEQEFEALMRML [S6T] | 2.68
GEGTGSPPKWQIHEQEFEALMRML [G13H] | 3.29
GEGTGSPPKWQIGWQEFEALMRML [E14W] | 1.97
GEGTGSPPKWQIGEQEFEALMDML [R22D] | 3.61
GEGTFSPPKWQIGEQEFEALMRML [G5F] | 2.46
GEGTGSRPKWQIGEQEFEALMRML [P7R] | 2.63
GEGTGSPPKWQIGEQEFEALMRMT [L24T] | 3.8
GEGTGSPGKWQIGEQEFEALMRML [P8G] | 3
GECTGSPPKWQIGEQEFEALMRML [G3C] | 3.6
GEGTGLPPKWQIGEQEFEALMRML [S6L] | 3.03
GEWTGSPPKWQIGEQEFEALMRML [G3W] | 2.49
GEGTGSPPKWHIGEQEFEALMRML [Q11H] | 3.23
GEGTGSPPKWQIWEQEFEALMRML [G13W] | 3.37
GEGTGSPPKCQIGEQEFEALMRML [W10C] | 2.93
GEGTGSPPSWQIGEQEFEALMRML [K9S] | 3.48
GEGTGSPPKWQIGEQEFEWLMRML [A19W] | 2.31
GEGTGSPPKWQIGETEFEALMRML [Q15T] | 3.09
GEGTGSPPIWQIGEQEFEALMRML [K9I] | 2.58
KEGTGSPPKWQIGEQEFEALMRML [G1K] | 2.91
GEGTGSPPKWQCGEQEFEALMRML [I12C] | 3.27
GEFTGSPPKWQIGEQEFEALMRML [G3F] | 2.89
GEGTGSPPKWMIGEQEFEALMRML [Q11M] | 3.54
